- tested-target: T1, rhNav1.7α+β1-β2-β3 (rhesus monkey α subunit with human β …)
- T1 construct: P2A cleaves it into α, β1, β2, β3; also called rhNav1.7-beta1-beta2-beta3
- experiment: binding FACS, CHO FlpIn cells
value-kind: pEC50
Remember, pEC50 is on a log scale: it is -log10 of the molar concentration.

binder	pEC50
F010300684 (VHH, vs F0103275B05: S27P, I28V, I31W, N53P, N93R, T101I) VHH: EVQLVESGGGLVQPGGSLRLSCAASGPVFNWNSMAWYRRAPGKQRELVASSTPGGSTNYADSVKGRFTISRDNAKRVYLQMNSLTPEDTAVYYCRALLQPSIYDISRIYWGQGTLVTVSS	7.30

Attention now shifts to the item below.
Sample F010301460 (VHH, vs F0103275B05: S27P, I28V, S33R, S50Y, N53P, N93R) VHH: EVQLVESGGGLVQPGGSLRLSCAASGPVFNINRMAWYRRAPGKQRELVAYSTPGGSTNYADSVKGRFTISRDNAKRVYLQMNSLTPEDTAVYYCRALLQPSIYDISRTYWGQGTLVTVSS ; pEC50 observed: 7.49
